target: cyclin B/CDK1 enzyme (Homo sapiens, UniProt P06493); construct: purchased New England BioLabs; host or cells: Sf9 insect cells, recombinant baculovirus; assay: CDK1 ELISA kinase assay (phospho-Rb ser 795 detection); assay type: biochemical; conditions: In Vitro Enzyme Assays, read-out: CDK1 IC50
Sequence (P06493 whole entry): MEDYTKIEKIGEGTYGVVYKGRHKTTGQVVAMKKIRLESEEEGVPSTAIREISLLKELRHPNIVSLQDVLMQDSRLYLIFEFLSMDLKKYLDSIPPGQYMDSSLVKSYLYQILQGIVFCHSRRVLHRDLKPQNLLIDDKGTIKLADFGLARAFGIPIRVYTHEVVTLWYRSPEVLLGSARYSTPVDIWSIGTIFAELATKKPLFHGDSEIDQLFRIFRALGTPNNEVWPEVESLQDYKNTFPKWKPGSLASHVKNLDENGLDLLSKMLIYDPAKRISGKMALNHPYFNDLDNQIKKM
Sequence (P14635 whole entry partner): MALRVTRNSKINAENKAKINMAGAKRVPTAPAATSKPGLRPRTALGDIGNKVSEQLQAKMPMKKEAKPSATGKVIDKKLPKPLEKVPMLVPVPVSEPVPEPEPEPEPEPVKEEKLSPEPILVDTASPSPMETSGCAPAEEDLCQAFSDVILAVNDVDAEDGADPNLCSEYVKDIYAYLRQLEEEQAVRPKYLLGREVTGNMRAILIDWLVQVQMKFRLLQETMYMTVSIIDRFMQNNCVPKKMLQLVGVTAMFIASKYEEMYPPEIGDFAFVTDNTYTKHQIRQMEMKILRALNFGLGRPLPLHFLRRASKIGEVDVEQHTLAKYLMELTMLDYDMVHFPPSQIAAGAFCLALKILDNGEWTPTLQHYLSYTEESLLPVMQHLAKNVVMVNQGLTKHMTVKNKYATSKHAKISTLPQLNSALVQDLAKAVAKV
List of IC50 values.

>  <Compound>
O=C1NC(=O)c2ccc(Br)cc2/C1=C/NCc1ccc(O)c(O)c1O

>  <Readout kind>
IC50

>  <Measured>
3.1 µM

$$$$
>  <Compound>
COC[C@H]1CCCN1Cc1ccc(N/C=C2\C(=O)NC(=O)c3ccc(Br)cc32)cc1

>  <Readout kind>
IC50

>  <Measured>
> 50 µM

$$$$

Proceeding to the next compound to report its IC50.
Looking up "CN1CCN(c2ccc(N/C=C3\C(=O)NC(=O)c4ccc(I)cc43)cc2F)CC1" , I found its IC50 recorded as > 50 µM

* * *

system: LoVo; assay: Cytotoxicity assay (SRB), LoVo; format: cell-based; settings: Homo sapiens, LoVo, 72 h, LoVo cells, 3 days, SRB; read-out: In Vitro Cellular Activity IC50 LOVO
List of pIC50 values.
Scale explanation: pIC50 corresponds to minus log10 of a concentration expressed in moles per litre.

Answered cases to consult:
>  <Molecule>
COc1ccc(CNC=C2C(=O)NC(=O)c3ccc(C=Cc4ccccc4)cc32)cc1O

>  <System name>
LoVo

>  <Readout kind>
pIC50

>  <Measured>
4.66

$$$$
>  <Molecule>
O=C1NCc2cc(Cl)ccc2C1=CNc1cccc(O)c1

>  <System name>
LoVo

>  <Readout kind>
pIC50

>  <Measured>
4.87

$$$$
>  <Molecule>
CN1CCN(c2ccc(NC=C3C(=O)NC(=O)c4ccc(C=Cn5ccnc5)cc43)cc2)CC1

>  <System name>
LoVo

>  <Readout kind>
pIC50

>  <Measured>
5.33

$$$$
>  <Molecule>
COc1ccc(NC=C2C(=O)NCc3cc(Br)ccc32)cc1

>  <System name>
LoVo

>  <Readout kind>
pIC50

>  <Measured>
4.47

$$$$
>  <Molecule>
CCN1CCCC1c1ccc(N/C=C2\C(=O)NC(=O)c3ccc(-c4ccoc4)cc32)cc1 (centres unmarked)

>  <System name>
LoVo

>  <Readout kind>
pIC50

>  <Measured>
5.64

$$$$
>  <Molecule>
CN1CCN(c2ccc(CN/C=C3\C(=O)NC(=O)c4ccc(I)cc43)cc2O)CC1

>  <System name>
LoVo

>  <Readout kind>
pIC50

>  <Measured>
5.26

$$$$

Looking up "O=C1NCc2cc(Br)ccc2C1=CNc1ccc(CN2CCCC2)cc1" , I found its pIC50 recorded as 5.31

Looking up "CN1CCN(c2ccc(NC=C3C(=O)NC(=O)c4ccc(-c5ccc6[nH]ccc6c5)cc43)cc2)CC1" , I found its pIC50 recorded as 5.39

Looking up "Nc1cccc(-c2ccc3c(c2)C(=CNCc2ccc(O)c(O)c2)C(=O)NC3=O)c1" , I found its pIC50 recorded as 4.30

Looking up "O=C1NC(=O)c2ccc(-c3ccc4[nH]ccc4c3)cc2C1=CNCc1ccc(O)c(O)c1" , I found its pIC50 recorded as 4.97

Looking up "O=C1NC(=O)c2ccc(I)cc2/C1=C/Nc1ccc(N2CCN(CCO)CC2)cc1" , I found its pIC50 recorded as 5.17

Looking up "O=C1NC(=O)c2ccc(-c3ccccc3)cc2C1=CNCc1ccc(O)c(O)c1" , I found its pIC50 recorded as 4.94

Looking up "O=C1NC(=O)c2ccc(-c3ccc(C(F)(F)F)cc3)cc2C1=CNCc1ccc(O)c(O)c1" , I found its pIC50 recorded as 4.81

* * *

List of pIC50 values.
tested on: LoVo; assay: Cytotoxicity assay (SRB), LoVo; format: cell-based; conditions: Homo sapiens, LoVo, 72 h, LoVo cells, 3 days, SRB; read-out: In Vitro Cellular Activity IC50 LOVO
Scale explanation: pIC50 corresponds to minus log10 of a concentration expressed in moles per litre.

Looking up NS(=O)(=O)c1ccc(CNC=C2C(=O)NC(=O)c3ccc(-c4ccc(F)cc4)cc32)cc1 [Example 738] , I found its pIC50 recorded as 4.41

Looking up CN1CCC(N(C)CC2CCN(c3ccc(N/C=C4\C(=O)NC(=O)c5ccc(I)cc54)cc3)CC2)C1 (stereo not shown) [Example 455] , I found its pIC50 recorded as 5.48

Looking up O=C1NC(=O)c2ccc(C3CCCC3)cc2/C1=C/NCc1ccc(-c2ccoc2)c(O)c1 [Example 536] , I found its pIC50 recorded as 6.29

* * *

biological target: cyclin E/CDK2 enzyme (Homo sapiens, UniProt P24941); construct: made in house; host or cells: Sf9 insect cells, recombinant baculovirus; test: CDK2 ELISA kinase assay (phospho-Rb ser 795 detection); type: biochemical; conditions: In Vitro Enzyme Assay, cyclin E/CDK2, read-out: CDK2 IC50
pIC50: −log10 of the molar value.
Readout kind: pIC50

>  <Compound>
CCN1CCCC1c1ccc(N/C=C2\C(=O)NC(=O)c3ccc(I)cc32)cc1 (centres unmarked)

>  <pIC50>
4.66

$$$$
>  <Compound>
O=C1NC(=O)c2ccccc2C1=CNc1ccc(O)c(C(=O)O)c1

>  <pIC50>
4.82

$$$$
>  <Compound>
O=C(O)C=Cc1ccc(-c2ccc3c(c2)C(=CNCc2ccc(O)c(O)c2)C(=O)NC3=O)cc1

>  <pIC50>
4.75

$$$$
>  <Compound>
COc1ccc(-c2ccc3c(c2)C(=CNCc2ccc(OC)c(O)c2)C(=O)NC3=O)cc1

>  <pIC50>
4.82

$$$$

(A) CN(C)C1CCN(Cc2ccc(N/C=C3\C(=O)NC(=O)c4ccc(-c5ccoc5)cc43)cc2)C1 (centres unmarked)
(B) CN(C)Cc1ccc(C=Cc2ccc3c(c2)C(=CNCc2ccc(O)c(O)c2)C(=O)NC3=O)cc1
(C) COc1ccc(NC=C2C(=O)NCc3cc(-c4ccc[nH]4)ccc32)cc1
Request: Put the items in order so that reported pIC50 rises from first to last. List the labels, following the order given in the request.
Response: C, B, A

* * *

target: cyclin E/CDK2 enzyme (Homo sapiens); construct: made in house; host or cells: Sf9 insect cells, recombinant baculovirus; assay: CDK2 ELISA kinase assay (phospho-Rb ser 795 detection); format: biochemical; conditions: In Vitro Enzyme Assay, cyclin E/CDK2, read-out: CDK2 IC50
Readout kind: IC50 (µM)

>  <Structure smiles>
O=C1NC(=O)c2ccc(I)cc2/C1=C/NCc1ccc(-c2ccc(F)cc2)c(O)c1

>  <IC50 [µM]>
15.1

$$$$

(a) N#CCc1ccc(C=Cc2ccc3c(c2)C(=CNCc2ccc(O)c(O)c2)C(=O)NC3=O)cc1
(b) NS(=O)(=O)c1ccc(CNC=C2C(=O)NC(=O)c3ccc(-c4ccc[nH]4)cc32)cc1
(c) CN1CCN(c2ccc(NC=C3C(=O)NC(=O)c4ccc(C=Cc5ccc(S(N)(=O)=O)cc5)cc43)cc2)CC1
Request: Put the entries in order of IC50, starting with the largest number. List the labels, following the order given in the request.
Response: a, b, c

(1) NS(=O)(=O)c1ccc(CNC=C2C(=O)NC(=O)c3ccc(C=Cc4cnccn4)cc32)cc1
(2) O=C1NC(=O)c2ccc(C=CCc3ccccc3)cc2C1=CNCc1ccc(O)c(O)c1
Request: I'm curious whether 1 or 2 has the smaller IC50 number. Which is it? Your answer should be the label of the entry you select.
Response: 1
(1: 11 µM, 2: 33.9 µM)

* * *

system: SK-UT-1B; experiment: Cytotoxicity assay (SRB), SK-UT-1B; format: cell-based; conditions: Homo sapiens, Skut1B; SK-UT-1B cells; read-out: In Vitro Cellular Activity IC50 SK-UT-1B
Readout kind: pIC50
Scale explanation: pIC50 corresponds to minus log10 of a concentration expressed in moles per litre.

Measured on SK-UT-1B, O=C1NC(=O)c2ccccc2/C1=C/NCc1ccc(O)c(O)c1 [Example 550] has a documented pIC50 of 4.76

* * *

tested on: MCF-7; assay: Cytotoxicity assay (SRB), MCF-7; format: cell-based; settings: Homo sapiens, MCF7, 72 h, MCF-7 cells, 3 days, SRB; read-out: In Vitro Cellular Activity IC50 MCF-7
Readout kind: pIC50
Scale explanation: pIC50 corresponds to minus log10 of a concentration expressed in moles per litre.

>  <Molecule>
Cc1ccc(-c2ccc3c(c2)C(=CNCc2ccc(S(N)(=O)=O)cc2)C(=O)NC3=O)cc1 [Example 752]

>  <pIC50>
4.73

$$$$
>  <Molecule>
CN1CCN(c2ncc(N/C=C3\C(=O)NC(=O)c4ccc(I)cc43)cn2)CC1 [Example 475]

>  <pIC50>
5.66

$$$$
>  <Molecule>
O=Cc1ccc(-c2ccc3c(c2)/C(=C/Nc2ccc(CN4CCCCC4)cc2)C(=O)NC3=O)o1 [Example 492]

>  <pIC50>
5.39

$$$$
>  <Molecule>
O=C1NCc2ccccc2C1=CNc1ccc(N2CCCCC2)cc1 [Example 860]

>  <pIC50>
4.40

$$$$
>  <Molecule>
N#CCc1ccc(NC=C2C(=O)NC(=O)c3ccc(-c4ccc[nH]4)cc32)cc1 [Example 630]

>  <pIC50>
4.70

$$$$
>  <Molecule>
CC(=O)Nc1cccc(-c2ccc3c(c2)C(=CNCc2ccc(O)c(O)c2)C(=O)NC3=O)c1 [Example 822]

>  <pIC50>
4.77

$$$$

Looking up CN1CCN(c2ccc(NC=C3C(=O)NC(=O)c4ccc(-c5ccn(CCCC#N)c5)cc43)cc2)CC1 [Example 855] , I found its pIC50 recorded as 4.37

Looking up O=C1NC(=O)c2ccc(-n3cccc3)cc2/C1=C/Nc1ccc(Br)cn1 [Example 444] , I found its pIC50 recorded as 5.05

Looking up O=C1NC(=O)c2ccc(-c3ccoc3)cc2/C1=C/Nc1ccc(CN2CCC(CCO)CC2)cc1 [Example 491] , I found its pIC50 recorded as 6.00

Looking up N#CCc1ccc(NC=C2C(=O)NC(=O)c3ccc(-c4ccc5[nH]ccc5c4)cc32)cc1 [Example 629] , I found its pIC50 recorded as 4.30

Looking up O=C1NC(=O)c2ccc(N3CCCC3)cc2/C1=C/NCc1ccc(O)c(O)c1 [Example 609] , I found its pIC50 recorded as 4.87

Looking up COC[C@@H]1CCCN1Cc1ccc(N/C=C2\C(=O)NC(=O)c3ccc(-c4ccco4)cc32)cc1 [Example 467] , I found its pIC50 recorded as 5.72

Looking up CCCCn1ccc(CN/C=C2\C(=O)NC(=O)c3ccc(I)cc32)cc1=O [Example 529] , I found its pIC50 recorded as 5.62

Looking up CN1CCC(N(C)CC2CCN(c3ccc(N/C=C4\C(=O)NC(=O)c5ccc(I)cc54)cc3)CC2)C1 (stereo not drawn) [Example 455] , I found its pIC50 recorded as 5.51

Looking up COc1ccccc1-c1ccc2c(c1)C(=CNCc1ccc(O)c(O)c1)C(=O)NC2=O [Example 766] , I found its pIC50 recorded as 4.66
